# Tested on: BT-474
# experimentNotes: Cytotoxicity assay (Cell-titer-Glow, 72 hr)
# Assay type: cell-based
# assaySetup: Homo sapiens; breast cancer line BT-474, 72hr; read-out: IC50 for inhibition of BT-474

- compound: "Cl.NCCCOc1cc2ccccc2cc1C(=O)NCCOc1cc2ccccc2cc1C(=O)Nc1ccccc1F [SRS-1006]"
  unitText: "µM"
  IC50: 5.21

* * *

# experimentNotes: Mouse pharmacokinetics, plasma by LC-MS/MS
# Format: in vivo, mice (C57BL/6)
# assaySetup: female C57BL/6 mice, single dose 10 mg/kg IP, read-out: IP bioavailability

- compound: "Cl.NCCCOc1cc2ccccc2cc1C(=O)NCCOc1cc2ccccc2cc1C(=O)Nc1ccccc1F [SRS-1006]"
  bioavailability, %: 100
